- System: yellow broilers
- Assay context: 1-day-old yellow broilers, basal ration + 750 ppm, 20 days

Compound: O=C(NC(CCC(=O)N1CCCCC1)C(=O)O)c1ccccc1 (stereo not drawn)
Tested system: yellow broilers
Unit info: g/d per broiler
ADFI (average daily feed intake): 30.9
--
Compound: CCNC(=O)CCC(NC(=O)c1ccccc1)C(=O)[O-].CCNC(=O)CCC(NC(=O)c1ccccc1)C(=O)[O-].[Cu+2] (stereo not drawn)
Tested system: yellow broilers
Unit info: g/d per broiler
ADFI (average daily feed intake): 30.6
--
Compound: CCNC(=O)CCC(NC(=O)c1ccc(O)cc1)C(=O)O (stereo not drawn)
Tested system: yellow broilers
Unit info: g/d per broiler
ADFI (average daily feed intake): 31.6
--
Compound: CCNC(=O)CCC(NC(=O)c1ccc(Cl)cc1)C(=O)O (stereo not drawn)
Tested system: yellow broilers
Unit info: g/d per broiler
ADFI (average daily feed intake): 32.2
--
Compound: CCNC(=O)CCC(NC(=O)c1ccc(C)cc1)C(=O)O (stereo not drawn)
Tested system: yellow broilers
Unit info: g/d per broiler
ADFI (average daily feed intake): 30.8
--
Compound: CCNC(=O)CCC(NC(=O)c1ccccc1)C(=O)OCC (stereo not drawn)
Tested system: yellow broilers
Unit info: g/d per broiler
ADFI (average daily feed intake): 31.2
--
Compound: CCCC(=O)NC(CCC(=O)NCC)C(=O)O (stereo not drawn)
Tested system: yellow broilers
Unit info: g/d per broiler
ADFI (average daily feed intake): 31.3
--
Compound: CCCCNC(=O)CCC(NC(=O)c1ccccc1)C(=O)O (stereo not drawn)
Tested system: yellow broilers
Unit info: g/d per broiler
ADFI (average daily feed intake): 31.5
--
Compound: CCCCCCCCCCCCCC(=O)NC(CCC(=O)NCC)C(=O)O (stereo not drawn)
Tested system: yellow broilers
Unit info: g/d per broiler
ADFI (average daily feed intake): 32.4
